Assay: activity coefficient (dimensionless); of the first substance listed, at infinite dilution; xn = mol fraction of the nth substance listed
Settings: 333 K; 101.33 kPa; Liquid; Chromatography; x1 = 0
Listed next: entries and their corresponding activity coefficient.
Please reply with the number alone, leaving off any unit.

# Compound, activity coefficient
measured = [
    ("CCCCCCCC [octane] + O=S(=O)([N-]S(=O)(=O)C(F)(F)F)C(F)(F)F.O=S(=O)([N-]S(=O)(=O)C(F)(F)F)C(F)(F)F.O=S(=O)([N-]S(=O)(=O)C(F)(F)F)C(F)(F)F.c1ccc2cc(-n3cc[n+](Cc4cc(C[n+]5ccn(-c6ccc7ccccc7c6)c5)cc(C[n+]5ccn(-c6ccc7ccccc7c6)c5)c4)c3)ccc2c1", 14.1),
    ("C1COCCO1 [1,4-dioxane] + O=S(=O)([N-]S(=O)(=O)C(F)(F)F)C(F)(F)F.O=S(=O)([N-]S(=O)(=O)C(F)(F)F)C(F)(F)F.O=S(=O)([N-]S(=O)(=O)C(F)(F)F)C(F)(F)F.c1ccc2cc(-n3cc[n+](Cc4cc(C[n+]5ccn(-c6ccc7ccccc7c6)c5)cc(C[n+]5ccn(-c6ccc7ccccc7c6)c5)c4)c3)ccc2c1", 0.276),
]

Q. Tell me its activity coefficient given ClC(Cl)(Cl)Cl [tetrachloromethane] + O=S(=O)([N-]S(=O)(=O)C(F)(F)F)C(F)(F)F.O=S(=O)([N-]S(=O)(=O)C(F)(F)F)C(F)(F)F.O=S(=O)([N-]S(=O)(=O)C(F)(F)F)C(F)(F)F.c1ccc2cc(-n3cc[n+](Cc4cc(C[n+]5ccn(-c6ccc7ccccc7c6)c5)cc(C[n+]5ccn(-c6ccc7ccccc7c6)c5)c4)c3)ccc2c1 as the entry.
A. 3.29
